# Tested on: 377384-186-R-J1-PDC complex spheroid viability
# test.description: Anticancer human tumor 377384-186-R-J1-PDC patient-derived pancreatic carcinoma cell line growth inhibition [CLK]
# cond: second compound 10 µM; first compound 0.0316 µM; stronger effect = lower value
# From the text: A high-throughput screen of multi-cell type tumor spheroids was designed to identify active combinations of […] and targeted small molecules. Complex spheroids include a stromal component modeled by human endothelial cells (HUVEC) and fibroblasts modeled by human mesenchymal stem cells (MSCs). […] Compounds. […] If the clinical Cmax for an agent had not been determined, the highest concentration tested was 10 microM. […]
Measured viability, T/C values are reported for all entries that follow.
I only need the number, in %, no unit after it.

For orientation, consider the following solved cases.
CCCS(=O)(=O)Nc1ccc(F)c(C(=O)c2c[nH]c3ncc(-c4ccc(Cl)cc4)cc23)c1F + CN1CCN(c2cc(C(=O)Nc3cc4cc(-c5cnn(C)c5)ccc4cn3)ccn2)CC1 | 0.54
Cn1ncnc1[C@H]1c2n[nH]c(=O)c3cc(F)cc(c23)N[C@@H]1c1ccc(F)cc1 + CNC(=O)c1ccc(Nc2nc(OC3CCCC3)c3c(-c4ccc5nc(C)oc5c4)c[nH]c3n2)c(OC)c1 | 18.5
C#Cc1c(F)ccc2cc(O)cc(-c3ncc4c(N5CC6CCC(C5)N6)nc(OCC56CCCN5CC(F)C6)nc4c3F)c12 (stereo not given) + CN1CCN(c2cc(C(=O)Nc3cc4cc(-c5cnn(C)c5)ccc4cn3)ccn2)CC1 | 0.1
COc1cccc2c1C(=O)c1c(O)c3c(c(O)c1C2=O)CC(O)(C(=O)CO)CC3OC1CC(N)C(O)C(C)O1 (stereo not given) + CNC(=O)c1ccc(Nc2nc(OC3CCCC3)c3c(-c4ccc5nc(C)oc5c4)c[nH]c3n2)c(OC)c1 | 7.12

Asked: # get_value(readout='viability, T/C', item= CC1(C)CCC(CN2CCN(c3ccc(C(=O)NS(=O)(=O)c4ccc(NCC5CCOCC5)c([N+](=O)[O-])c4)c(Oc4cnc5[nH]ccc5c4)c3)CC2)=C(c2ccc(Cl)cc2)C1 + CN1CCN(c2cc(C(=O)Nc3cc4cc(-c5cnn(C)c5)ccc4cn3)ccn2)CC1 )
Given back: 0.41

###

# Test system: 377384-186-R-J1-PDC complex spheroid viability
# test.description: Anticancer human tumor 377384-186-R-J1-PDC cell line growth inhibition [CLK];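 further: luminescence signal used as a stand-in for viable cells; spheroids exposed to agents for 7 days before reading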
# cond: second compound 0.0316 µM; first compound 10 µM; stronger effect = lower value
Measured viability, T/C values are reported for all entries that follow.
I only need the number, in %, no unit after it.

For orientation, consider the following solved cases.
CC1(C)CCC(CN2CCN(c3ccc(C(=O)NS(=O)(=O)c4ccc(NCC5CCOCC5)c([N+](=O)[O-])c4)c(Oc4cnc5[nH]ccc5c4)c3)CC2)=C(c2ccc(Cl)cc2)C1 + CNC(=O)c1ccc(Nc2nc(OC3CCCC3)c3c(-c4ccc5nc(C)oc5c4)c[nH]c3n2)c(OC)c1 | 104
C#Cc1c(F)ccc2cc(O)cc(-c3ncc4c(N5CC6CCC(C5)N6)nc(OCC56CCCN5CC(F)C6)nc4c3F)c12 (stereo not given) + CN1CCN(c2cc(C(=O)Nc3cc4cc(-c5cnn(C)c5)ccc4cn3)ccn2)CC1 | 2.78
C=C(F)C(=O)N1CCN(c2nc(OCC3CCCN3C)nc3c2CCN(c2cccc4cccc(Cl)c24)C3)CC1CC#N (stereo not given) + CN1CCN(c2cc(C(=O)Nc3cc4cc(-c5cnn(C)c5)ccc4cn3)ccn2)CC1 | 0.18

Asked: # get_value(readout='viability, T/C', item= CCCS(=O)(=O)Nc1ccc(F)c(C(=O)c2c[nH]c3ncc(-c4ccc(Cl)cc4)cc23)c1F + CNC(=O)c1ccc(Nc2nc(OC3CCCC3)c3c(-c4ccc5nc(C)oc5c4)c[nH]c3n2)c(OC)c1 )
Given back: 52.5

Asked: # get_value(readout='viability, T/C', item= CCCS(=O)(=O)Nc1ccc(F)c(C(=O)c2c[nH]c3ncc(-c4ccc(Cl)cc4)cc23)c1F + CN1CCN(c2cc(C(=O)Nc3cc4cc(-c5cnn(C)c5)ccc4cn3)ccn2)CC1 )
Given back: 64.8

Asked: # get_value(readout='viability, T/C', item= COc1ccc([C@@H](O)c2cc(-c3ncnc4cc(N5CCOCC5)ccc34)c(F)cc2Cl)nn1 + CNC(=O)c1ccc(Nc2nc(OC3CCCC3)c3c(-c4ccc5nc(C)oc5c4)c[nH]c3n2)c(OC)c1 )
Given back: 29.4

Asked: # get_value(readout='viability, T/C', item= CC1COCCN1c1cc(C2(S(C)(=N)=O)CC2)nc(-c2ccnc3[nH]ccc23)n1 (stereo not given) + CN1CCN(c2cc(C(=O)Nc3cc4cc(-c5cnn(C)c5)ccc4cn3)ccn2)CC1 )
Given back: 19.1

Asked: # get_value(readout='viability, T/C', item= COc1ccc([C@@H](O)c2cc(-c3ncnc4cc(N5CCOCC5)ccc34)c(F)cc2Cl)nn1 + CN1CCN(c2cc(C(=O)Nc3cc4cc(-c5cnn(C)c5)ccc4cn3)ccn2)CC1 )
Given back: 42.5

Asked: # get_value(readout='viability, T/C', item= COc1cccc2c1C(=O)c1c(O)c3c(c(O)c1C2=O)CC(O)(C(=O)CO)CC3OC1CC(N)C(O)C(C)O1 (stereo not given) + CNC(=O)c1ccc(Nc2nc(OC3CCCC3)c3c(-c4ccc5nc(C)oc5c4)c[nH]c3n2)c(OC)c1 )
Given back: 5.83

Asked: # get_value(readout='viability, T/C', item= O=c1[nH]cc(F)c(=O)[nH]1 + CN1CCN(c2cc(C(=O)Nc3cc4cc(-c5cnn(C)c5)ccc4cn3)ccn2)CC1 )
Given back: 46.5

###

# Test system: 377384-186-R-J1-PDC complex spheroid viability
# test.description: Anticancer human tumor 377384-186-R-J1-PDC cell line growth inhibition [CLK]; active means viability on the fitted dose curve at most 10% of control; inactive means the rest;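 further: luminescence signal used as a stand-in for viable cells; spheroids exposed to agents for 7 days before reading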
# cond: second compound 0.316 µM; first compound 3.16 µM
# Excerpt: A high-throughput screen of multi-cell type tumor spheroids was designed to identify active combinations of […] and targeted small molecules. Complex spheroids include a stromal component modeled by human endothelial cells (HUVEC) and fibroblasts modeled by human mesenchymal stem cells (MSCs). […] Compounds. […] If the clinical Cmax for an agent had not been determined, the highest concentration tested was 10 microM. […]
Select the matching outcome among 1.0 for active, 0.0 for inactive

COc1cccc2c1C(=O)c1c(O)c3c(c(O)c1C2=O)CC(O)(C(=O)CO)CC3OC1CC(N)C(O)C(C)O1 (stereo not given) + CN1CCN(c2cc(C(=O)Nc3cc4cc(-c5cnn(C)c5)ccc4cn3)ccn2)CC1 | 1.0
COc1ccc([C@@H](O)c2cc(-c3ncnc4cc(N5CCOCC5)ccc34)c(F)cc2Cl)nn1 + CN1CCN(c2cc(C(=O)Nc3cc4cc(-c5cnn(C)c5)ccc4cn3)ccn2)CC1 | 0.0
C=CC(=O)N1CCN(c2nc(=O)n(-c3c(C)ccnc3C(C)C)c3nc(-c4c(O)cccc4F)c(F)cc23)C(C)C1 (stereo not given) + CN1CCN(c2cc(C(=O)Nc3cc4cc(-c5cnn(C)c5)ccc4cn3)ccn2)CC1 | 0.0

Asked: # fetch the recorded call for CC1COCCN1c1cc(C2(S(C)(=N)=O)CC2)nc(-c2ccnc3[nH]ccc23)n1 (stereo not given) + CNC(=O)c1ccc(Nc2nc(OC3CCCC3)c3c(-c4ccc5nc(C)oc5c4)c[nH]c3n2)c(OC)c1 here
Given back: 0.0

Asked: # fetch the recorded call for C#Cc1c(F)ccc2cc(O)cc(-c3ncc4c(N5CC6CCC(C5)N6)nc(OCC56CCCN5CC(F)C6)nc4c3F)c12 (stereo not given) + CNC(=O)c1ccc(Nc2nc(OC3CCCC3)c3c(-c4ccc5nc(C)oc5c4)c[nH]c3n2)c(OC)c1 here
Given back: 1.0

Asked: # fetch the recorded call for O=c1[nH]cc(F)c(=O)[nH]1 + CNC(=O)c1ccc(Nc2nc(OC3CCCC3)c3c(-c4ccc5nc(C)oc5c4)c[nH]c3n2)c(OC)c1 here
Given back: 0.0

###

# System: 377384-186-R-J1-PDC complex spheroid viability
# test.description: Anticancer human tumor 377384-186-R-J1-PDC cell line growth inhibition [CLK];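 further: luminescence signal used as a stand-in for viable cells; spheroids exposed to agents for 7 days before reading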
# cond: second compound 3.16 µM; first compound 0.316 µM; stronger effect = lower value
readout.type: viability, T/C

For orientation, consider the following solved cases.
CC(Nc1ccc2c(c1)OCCn1cc(N3C(=O)OCC3C(F)F)nc1-2)C(N)=O (stereo not given) + CN1CCN(c2cc(C(=O)Nc3cc4cc(-c5cnn(C)c5)ccc4cn3)ccn2)CC1 | 0.62%
CCN1CCN(Cc2ccc(Nc3ncc(F)c(-c4cc(F)c5nc(C)n(C(C)C)c5c4)n3)nc2)CC1 + CN1CCN(c2cc(C(=O)Nc3cc4cc(-c5cnn(C)c5)ccc4cn3)ccn2)CC1 | 2.28%
Nc1ccn(C2OC(CO)C(O)C2(F)F)c(=O)n1 (stereo not given) + CNC(=O)c1ccc(Nc2nc(OC3CCCC3)c3c(-c4ccc5nc(C)oc5c4)c[nH]c3n2)c(OC)c1 | 4.34%
COc1ccc([C@@H](O)c2cc(-c3ncnc4cc(N5CCOCC5)ccc34)c(F)cc2Cl)nn1 + CNC(=O)c1ccc(Nc2nc(OC3CCCC3)c3c(-c4ccc5nc(C)oc5c4)c[nH]c3n2)c(OC)c1 | 18.1%

API: the following record is the query input.
Asked: # get_value(readout='viability, T/C', item= C=C(F)C(=O)N1CCN(c2nc(OCC3CCCN3C)nc3c2CCN(c2cccc4cccc(Cl)c24)C3)CC1CC#N (stereo not given) + CNC(=O)c1ccc(Nc2nc(OC3CCCC3)c3c(-c4ccc5nc(C)oc5c4)c[nH]c3n2)c(OC)c1 )
Given back: 18.3%
